test system: OVCAR-8 ovarian; assay: NCI tumour cell line growth inhibition, 48 h
Decide using TGI: a value greater than or equal to 30 µM is MET, a smaller one is NOT MET.

// below: answered compounds
Compound | Class label
COC(=O)CCC1(NS(=O)(=O)c2ccc(C)cc2)CCC(C(C)(C)C)CC1 (stereo not given) | MET
COC(=O)C(=O)C(C(=O)OC)C(=O)C(=O)Nc1ccccc1C(N)=O (stereo not given) | MET
CCCCCCCC/C=C\CCCCCCC/C=C1/C[C@](/C=C/C(=O)OC)(CO)OC1=O | NOT MET
O=C(c1ccccc1)c1nc2ccc(Cl)cc2c2c1Cc1ccccc1-2 | MET
[N-]=[N+]=Nc1ccc2c(c1)Sc1ccccc1N2CCCCN1CCN(Cc2ccc(C(=O)c3ccccc3)cc2)CC1 | MET

Ask: Would you say "O=C1c2ccc3cc(CCl)cc(O)c3c2C(=O)c2cccc(O)c21" shows TGI at minimum 30 µM?
Result: NOT MET

Ask: Now the compound O=C(O)CC1OCC=C2C[N+]3([O-])CCC45c6ccccc6NC4C1C2CC53 (stereo not given)
Result: MET

Ask: Now the compound CC(=O)OC1Oc2ccc(C)cc2-c2oc(=O)c(-c3cc4ccccc4oc3=O)cc21 (stereo not given)
Result: NOT MET

Ask: Now the compound CC(C)OP(=O)(c1ccccc1)c1ccc2c(c1)OCCOCCOCCOCCO2 (stereo not given)
Result: MET

Ask: Now the compound "CCOc1ccc2nc3cc(N=Nc4ccc(N)nc4N)ccc3c(N)c2c1"
Result: MET

---

system: UACC-62 melanoma; assay: NCI tumour cell line growth inhibition, 48 h
*1 amine or outer side, *2 acyl side, *3 side chain or, on linkers, in order; H or OH if unused. Where a SMILES comes first, the peptide text is derived from it. Bridges are numbered along the chain shown (N, C = ends). [ ]: non-standard residue; d: D form. The star is where a group is joined. Phe(3,5-F2) = N[C@@H](Cc1cc(F)cc(F)c1)C(=O)O; Pro(4R-Me) = C[C@H]1CN[C@H](C(=O)O)C1; aThr = C[C@H](O)[C@H](N)C(=O)O; Pip = O=C(O)[C@@H]1CCCCN1; X10 = Fc1cc(C2CC2)ccc1N*; Abu = CC[C@H](N)C(=O)O; CO = O=C([*:1])[*:2]
Observation type: TGI (µM)
Report the value in µM with no unit label.

Field: example entries. Status: answers known.
Compound | Test system | Number
O=C1C(c2ccccc2)=[N+]([O-])c2cc([N+](=O)[O-])c(/C(Cl)=C/c3ccccc3)cc21 | UACC-62 melanoma | 83.4
O=C(NC1CCC(Br)CC1)C1CCCC(S(=O)(=O)NC2CCCCC2)C1 (stereo not given) | UACC-62 melanoma | 35.3
CCCCn1c(C)c(C(=O)CC)c(C(=O)NCCN2CCN(c3ccccc3Cl)CC2)c1C | UACC-62 melanoma | 29.9
Cc1c2nc3ccccc3sc-2cc(=O)c1C | UACC-62 melanoma | 70.3
CC[C@@H]1NC(=O)[C@@H]2CCCCN2C(=O)[C@@H]2CCCN2C(=O)[C@@H](NC(=O)[C@H](Cc2cc(F)cc(F)c2)NC(=O)Nc2ccc(C3CC3)cc2F)[C@H](C)OC(=O)[C@@H]2C[C@@H](C)CN2C1=O ({X10-CO}-[Phe(3,5-F2)][aThr]P[Pip][Abu][Pro(4R-Me)]; ester 2-C) | UACC-62 melanoma | 2.7
COc1cc2c(cc1OCCCCCN1CCN(c3cc(=O)oc4ccccc34)CC1)N=C[C@@H]1CCCN1C2=O | UACC-62 melanoma | 0.383

Ask: Which TGI value belongs to COc1cc(OC)cc(C2C(C#N)=C(N)Oc3c2ccc2ccc(O)cc32)c1 (stereo not given) ?
Result: 4.42

Ask: Now the compound "CN1CCN(CCCCN2c3ccccc3Sc3ccc(C(=O)c4ccccc4)cc32)CC1"
Result: 2.52

Ask: Now the compound COC(=O)C1=C(c2cc(OC)c(OC)c(OC)c2)OC(c2ccc3c(c2)OCO3)C1 (stereo not given)
Result: 35.5

Ask: Now the compound "O=C(CC(Cl)(Cl)C(Cl)(Cl)Cl)c1ccccc1"
Result: 6.56

Ask: Now the compound "Clc1ccc(CSC2=NCCN2)cc1Cl"
Result: 30.5

Ask: Now the compound "CCC[C@H](N[C@H]1CCc2cc(F)cc(F)c2C1)C(=O)Nc1cn(C(C)(C)CNCC(C)(C)C)cn1"
Result: 45.8

---

# Lookup of reported GI50 keyed by entry
tested on: MALME-3M melanoma; experiment: NCI tumour cell line growth inhibition, 48 h

Compound | GI50
O=c1[nH]c2ccc(N=Cc3c(O)[nH]c4ccccc34)cc2[nH]1 | > 25 µM
c1ccc(CSc2nnc3c4c5c(sc4nc(-c4cccnc4)n23)CCCCCC5)cc1 | 2.76 µM
Oc1c(Cl)cc(Cl)c2ccc(Cn3cc(-c4cc(F)cc(F)c4)nn3)nc12 | 1.84 µM
COc1cc(-c2nn(-c3ccc(NC(=O)NCCCNC(=O)c4ccccc4)cc3)cc2-c2ccncc2)ccc1Cl | 0.457 µM

Ask: Which GI50 value belongs to "COc1cc2c(cc1OC)[Se]c1cc(OC)c(OC)cc1[Se]2" ?
Result: > 100 µM

Ask: Now the compound O=C(NC1CCC(Br)CC1)C1CCCC(S(=O)(=O)NC2CCCCC2)C1 (centres undefined)
Result: 6.47 µM

---

test system: MOLT-4 leukemia; test: NCI tumour cell line growth inhibition, 48 h
# Lookup of reported TGI keyed by entry

Compound | Test system | TGI
COc1ccc2c3c1O[C@H]1C(=O)C=CC4(n5[nH]c(=O)n(-c6ccccc6)c5=O)C(C2)N(C)CCC314 (stereo not given in full) | MOLT-4 leukemia | > 100 µM
COc1cc2c(cc1OC)C(Cc1ccc(Oc3cc(CC4c5cc(OC)c(OC)cc5CCN4C)ccc3O)cc1)N(C)CC2 (stereo not given) | MOLT-4 leukemia | 41.5 µM

Ask: Which TGI value belongs to O=C1[C@H]2ON(c3ccccc3)C(c3ccc(Cl)cc3Cl)[C@H]2C(=O)N1c1ccc(Cc2ccc(N3C(=O)[C@@H]4ON(c5ccccc5)C(c5ccc(Cl)cc5Cl)[C@@H]4C3=O)cc2)cc1 (stereo not given in full) ?
Result: > 100 µM

Ask: Now the compound CCn1cc(C(=O)N/N=C/c2ccc(Br)cc2)c(=O)c2cc(F)c(N3CCNC(C)C3)c(F)c21 (stereo not given)
Result: 3.47 µM

Ask: Now the compound "O=C(c1ccccc1)c1nc2ccc(Cl)cc2c2c1Cc1ccccc1-2"
Result: > 100 µM

Ask: Now the compound "O=[N+]([O-])c1nccn1COCCI"
Result: > 100 µM

Ask: Now the compound "Cc1c2nc3ccccc3sc-2cc(=O)c1C"
Result: > 100 µM

Ask: Now the compound "C[C@H]1CC[C@@H]2[C@@H](C)C[C@H]3[C@@H]4C(C)(C)OC(=O)[C@]4(C)C(=O)[C@@]23C1=O"
Result: > 100 µM

Ask: Now the compound COc1ccc(Cc2nc3cc([N+](=O)[O-])ccc3n2C[C@@H]2CCCN3CCCCC23)cc1 (stereo not given in full)
Result: 60.1 µM

Ask: Now the compound C=CCOC(C)n1c(C)c(Br)c(=O)[nH]c1=O (stereo not given)
Result: > 100 µM

Ask: Now the compound CC[C@]1(Cc2ccc(OC)c(OC)c2)[C@@H]2C[C@@H](C(=O)OC)ON2O[C@H](OC2CCCC2(c2ccccc2)c2ccccc2)[C@@H]1OC(C)=O (stereo not given in full)
Result: > 100 µM

Ask: Now the compound "O=C(Nc1ccc(Oc2cccc(Cl)c2)c(Cl)c1)c1cnccn1"
Result: > 50 µM

Ask: Now the compound "NN/C(=N\S(=O)(=O)c1ccc(-c2ccccn2)s1)Nc1ccc(Cl)cc1"
Result: > 100 µM

Ask: Now the compound "Cn1c(=O)c2c(ncn2Cc2ccc(O)c([N+](=O)[O-])c2)n(C)c1=O"
Result: > 100 µM

Ask: Now the compound "CC1=Nn2c(nnc2-c2ccc(Cl)cc2)NC(C)(C)C1"
Result: > 100 µM

Ask: Now the compound "Cn1c(-c2c(N)n(Cc3ccc(C(F)(F)F)cc3)c3nc(C#N)c(C#N)nc23)nc2ccccc21"
Result: 40.5 µM

Ask: Now the compound "COCCCCCC(=O)CP(=O)(OC)OC"
Result: > 100 µM

Ask: Now the compound "O=[N+]([O-])c1ccc(N=Nc2c(O)[nH]c3ccc(Br)cc23)cc1"
Result: > 51.7 µM

---

tested on: NCI-H460 lung; experiment: NCI tumour cell line growth inhibition, 48 h
Observation type: TGI

Ask: Which TGI value belongs to "O=c1n(-c2ccccc2)c(=O)n2n1C1C=CC2CCCCCC1" ?
Result: > 100 µM

Ask: Now the compound "COc1cnc2c(c1)C(=O)c1c-2n(CCCBr)c(=O)c2cc([N+](=O)[O-])ccc12"
Result: 0.699 µM

Ask: Now the compound O=S(=O)(c1ccccc1)C1CN2OC1(S(=O)(=O)c1ccccc1)CC21CCCCC1 (stereo not drawn)
Result: > 100 µM

Ask: Now the compound "COCOc1cc(OC)ccc1C/C=N/O"
Result: > 100 µM

Ask: Now the compound "Nc1ncnc2nc(N3CCN(CCO)CC3)[nH]c12"
Result: > 100 µM

Ask: Now the compound O=C1CC2(CCC(O)(c3cccc4ccccc34)C(C(=O)c3cccc4ccccc34)C2)C(=O)c2ccccc2N1 (stereo not drawn)
Result: 23.6 µM

Ask: Now the compound "Cn1c(-c2c(N)n(Cc3ccc(C(F)(F)F)cc3)c3nc(C#N)c(C#N)nc23)nc2ccccc21"
Result: 40.3 µM

Ask: Now the compound "Fc1ccc(-c2nnc3sc(-c4cc(Cl)cc(Cl)c4)nn23)cc1Cl"
Result: > 100 µM

Ask: Now the compound CCOC(=O)C1(c2ccccc2)CCCNCC1 (stereo not drawn)
Result: > 100 µM

Ask: Now the compound CSc1nc(SC)c2cnn(CC3CO3)c2n1 (stereo not drawn)
Result: 40.8 µM

Ask: Now the compound O=C(NC1C2CC3CC(C2)CC1C3)c1ccncn1 (stereo not drawn)
Result: > 100 µM

Ask: Now the compound "NN/C(=N\S(=O)(=O)c1ccc(-c2ccccn2)s1)Nc1ccc(Cl)cc1"
Result: > 100 µM

Ask: Now the compound CC(=O)OC1Oc2ccc(C)cc2-c2oc(=O)c(-c3cc4ccccc4oc3=O)cc21 (stereo not drawn)
Result: 17.8 µM

Ask: Now the compound "CNC(=S)NC(=S)N(C)C"
Result: > 100 µM

Ask: Now the compound "c1ccc(CSc2nnc3c4c5c(sc4nc(-c4cccnc4)n23)CCCCCC5)cc1"
Result: 11.1 µM

Ask: Now the compound "Cc1ccc(Nc2nc(C)c(C(=O)CC(=O)C(=O)Nc3c(C)cccc3C(C)(C)C)s2)cc1"
Result: > 100 µM

Ask: Now the compound CCOc1ccc(NC(=O)/C(=N\N)C(C(=O)OC)c2nc3ccc(Cl)cc3[nH]c2=O)cc1 (stereo not drawn)
Result: > 100 µM

Ask: Now the compound "Cc1cc(Nc2ncc(F)c(N[C@H]3[C@@H](C(N)=O)[C@@H]4C=C[C@H]3C4)n2)ccc1N1CCN(C)CC1"
Result: 4.21 µM
